B1: LPCAT4 (parent)
chain: HDPLYGKLFSTYLRPPHTSRGTSQ

Variants of: B1
Protocol Notes: protein stability index of a GFP-peptide fusion (GPS, HEK-293T) (PSI 1-6); higher = more stable;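 also: lentivirally expressed fusions sorted by FACS into six bins by GFP to DsRed ratio, PSI derived from sequencing read proportions per bin multiplied by bin number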
Condition Description: c terminus: a fixed tail appended
Quantity Name: protein stability index
One number for each entry.

Input Sequence	Value Measured
HDPLYGKLFSFYLRPPHTSRGTSQ [T11F]	2.75

Each of the following entries comes with a recorded value; kindly state protein stability index for each.
1. HDPLYGKLFSTYYRPPHTSRGTSQ [L13Y]
2. HDPLYGKLFSTYLRPPHMSRGTSQ [T18M]
3. HDPLYGKLFSTYLREPHTSRGTSQ [P15E]
4. HDPLYGKLFSTYLWPPHTSRGTSQ [R14W]
5. HDPLYGKLTSTYLRPPHTSRGTSQ [F9T]

1. 2.78
2. 2.57
3. 2.13
4. 2.52
5. 4.12

Each of the following entries comes with a recorded value; kindly state protein stability index for each.
1. HDPLEGKLFSTYLRPPHTSRGTSQ [Y5E]
2. HDPLYGKLFSTYLRPPHTSEGTSQ [R20E]

1: 3.67; 2: 3.53

Each of the following entries comes with a recorded value; kindly state protein stability index for each.
1. HDPLYGKLFSTYLLPPHTSRGTSQ [R14L]
2. HDPLYGKLFSTYLRPPHTSRGESQ [T22E]
3. HDPLYGKLFSTYLRPPHTLRGTSQ [S19L]
4. HDPLYGKLFSVYLRPPHTSRGTSQ [T11V]
5. HDPIYGKLFSTYLRPPHTSRGTSQ [L4I]

[2.32, 3.04, 2.36, 2.24, 2.04]
